# System: UACC-257
# experimental_details: NCI tumour cell line growth inhibition, 48 h
Activity calls are given as the source filed them. No stated cut-off is given here; in the data, active = GI50 up to about 1.1 µM and inactive = higher.
Outcomes: active, inactive

> print(dat)
                                    compound  system.name     group
 1   COc1ccc(-c2nc(-c3cc4ccccc4oc3=O)cs2)cc1     UACC-257  inactive
 2  CC1COC(C)(C)P(=O)(c2ccccc2)C1 (centres undefined)     UACC-257  inactive
 3  O=C(Cn1cc(F)c(=O)[nH]c1=O)C12CC3CC(CC(C3)C1)C2     UACC-257  inactive
 4  COc1ccc(Cn2c(C)nc3c2C(=O)c2ccccc2C3=O)cc1     UACC-257  inactive
 5  CC(C)N(C(C)C)S(=O)(=O)CC12CCC(C/C1=N\O)C2 (centres undefined)     UACC-257  inactive
 6  COC(=O)C1CC2(c3ccccc3)C(=O)c3ccccc3N2O1 (centres undefined)     UACC-257  inactive
 7  CC1(Cc2cc3c(cc2C2(c4ccc([N+](=O)[O-])cc4)OCCO2)OCO3)OCCO1     UACC-257  inactive
 8  O=C(Nc1ccccc1C(=O)NCc1ccccc1)/C(=C/c1ccccc1)NC(=O)c1ccccc1     UACC-257  inactive
 9  CC1=NN(C(=O)c2ccccc2O)C(=O)/C1=C/c1ccccc1O     UACC-257  inactive
10  Cc1ccc(N2C(=O)/C(=C3\Sc4c(nc(C)n(C)c4=O)N3c3ccccc3)SC2=S)cc1     UACC-257  inactive
11  Cc1ccc2c(=O)c(C(=O)NNC(=S)NC3CCCCC3)c[nH]c2n1     UACC-257  inactive
12  CC(=O)OCc1c2ccccc2c(C)c2c1cc(F)c1ccccc12     UACC-257  inactive
13             COc1cc(/C=N\O)nc(-c2ccccn2)c1     UACC-257  inactive
14  Cc1ccc(/C=C/C(=O)c2ccc([N+](=O)[O-])cc2)cc1     UACC-257  inactive
15               O=c1ccc2ccccc2o1 [COUMARIN]     UACC-257  inactive
16  COc1cc([N+](=O)[O-])c(OC)c2c(Nc3ccc(S(=O)(=O)O)c4cc(S(=O)(=O)O)cc(S(=O)(=O)O)c34)cc(C)nc12     UACC-257  inactive
17  C=C1C[C@H]2C=Nc3cc(OCCCOc4cc5c(cc4OC)C(=O)N4CC(=C)C[C@H]4C=N5)c(OC)cc3C(=O)N2C1 [SJG-136]     UACC-257    active
18  [O-]c1on[n+]2c1c(Nc1ccc(Cl)cc1)nc1ccccc12     UACC-257  inactive
19  CSc1nc(-c2cc3c(c(SC)n2)CCCCC3)cc2c1CCCCC2     UACC-257  inactive

----------
# Test system: HOP-92
# experimental_details: NCI tumour cell line growth inhibition, 48 h
Calls of active or inactive are those of the source. Rule as the data show it: active = GI50 up to about 1.1 µM and inactive = higher.
Outcomes: active, inactive

> print(dat)
                                    compound  system.name     group
 1  COc1c(CC=C(C)C)c(O)c(C(CC(C)C)c2c(O)c(CC=C(C)C)c(O)c(C(C)=O)c2O)c(O)c1C(C)=O (stereo not drawn)       HOP-92    active
 2  O=C1C=CC[C@H]2O[C@@H](COC(=O)Cc3ccccc3)C[C@H]2O1       HOP-92  inactive
 3           COc1cc(/C=C/c2ccccn2)cc(OC)c1OC       HOP-92  inactive
 4  [O-][Cl+3]([O-])([O-])O.c1ccc(C2=NN2c2ccccc2)cc1       HOP-92  inactive
 5  COC(=O)C1CC2(c3ccccc3)C(=O)c3ccccc3N2O1 (stereo not drawn)       HOP-92  inactive
 6  CCN(CC)CCCNc1nccc2c(C)c3[nH]c4ccncc4c(=O)c3cc12       HOP-92  inactive
 7  CC[C@]1(Cc2ccc(OC)c(OC)c2)C=[N+]([O-])O[C@H](OCc2ccccc2)[C@@H]1OC(C)=O       HOP-92  inactive
 8              Nn1c(Cc2ccc(Cl)cc2)n[nH]c1=O       HOP-92  inactive
 9  Cc1ccc(/C=C2/N/C(=N\N=C/C(O)C(O)C(O)C(O)CO)NC2=O)cc1 (stereo not drawn)       HOP-92  inactive
10  CC1(C)C=C(N2CCN(C3=CC(C)(C)NC(C)(C)C3)CC2)CC(C)(C)N1       HOP-92  inactive
11  O=C1NC(=N/c2ccccc2)/C(=N\c2ccccc2)N1c1ccccc1       HOP-92  inactive
12  Cc1ccc2c(c1)C(=O)/C(=C1/CCc3ccc(C)cc31)C2       HOP-92  inactive
13  CCN(CC)CCCNc1nncc2c(C)c3[nH]c4ccccc4c3cc12       HOP-92    active
14      CC(C)OP(=O)(OC(C)C)/C(C#N)=C/c1ccco1       HOP-92  inactive
15                     CSC(SC)=C1C(=O)NN=C1C       HOP-92  inactive
16  CCN(CC)c1ccc2cc(C(=O)Nc3ccccc3)c(=N)oc2c1       HOP-92  inactive
17         CC(C)(C)c1ccc(O)c(C[N+](C)(C)C)c1       HOP-92  inactive
18  COC(=O)/C(C#N)=C1\NC(=O)CC(c2ccccc2)C1C#N (stereo not drawn)       HOP-92  inactive
19  CC(=O)N[C@@H]1C(O)CN2C(=O)C(=O)O[C@H](C(O)CO)[C@@H]12 (stereo partly drawn)       HOP-92  inactive
20  COc1ccc2[nH]c3c([N+](=O)[O-])ccc(NCCCN(C)C)c3/c(=N/CCCN(C)C)c2c1       HOP-92  inactive
21  COc1cc(C2c3cc4c(cc3OC(NCCO)C2C)OCO4)cc(OC)c1OC (stereo not drawn)       HOP-92    active
22  NNC(=O)CSc1nnc(CCCCCCCCc2nnc(SCC(=O)NN)o2)o1       HOP-92  inactive
23  COc1cc2cc(C(=O)N3CC(CCl)c4c3cc(NC(=O)C(C)(C)c3ccccc3[N+](=O)[O-])c3ccccc43)[nH]c2c(OC)c1OC (stereo not drawn)       HOP-92  inactive
24      CCOC(=O)/C=C\C(C#N)(C#N)/N=C/c1ccsc1       HOP-92  inactive
25  COC(=O)C(C(=O)C(=O)NC1Nc2ccc(C)cc2S1)c1nc2ccc(Cl)cc2nc1O (stereo not drawn)       HOP-92  inactive
26                COC(=N)c1ncn(Cc2ccccc2)c1N       HOP-92  inactive
27                   Clc1nc(Cl)c(CBr)c(Cl)n1       HOP-92  inactive
28  CCOC(=O)C1=C(C)NC(=S)NC1c1ccccc1 (stereo not drawn)       HOP-92  inactive
